- Assayed system: High affinity choline transporter 1 (Homo sapiens) (UniProt Q9GZV3)
- Sequence (Q9GZV3 whole entry, looked up): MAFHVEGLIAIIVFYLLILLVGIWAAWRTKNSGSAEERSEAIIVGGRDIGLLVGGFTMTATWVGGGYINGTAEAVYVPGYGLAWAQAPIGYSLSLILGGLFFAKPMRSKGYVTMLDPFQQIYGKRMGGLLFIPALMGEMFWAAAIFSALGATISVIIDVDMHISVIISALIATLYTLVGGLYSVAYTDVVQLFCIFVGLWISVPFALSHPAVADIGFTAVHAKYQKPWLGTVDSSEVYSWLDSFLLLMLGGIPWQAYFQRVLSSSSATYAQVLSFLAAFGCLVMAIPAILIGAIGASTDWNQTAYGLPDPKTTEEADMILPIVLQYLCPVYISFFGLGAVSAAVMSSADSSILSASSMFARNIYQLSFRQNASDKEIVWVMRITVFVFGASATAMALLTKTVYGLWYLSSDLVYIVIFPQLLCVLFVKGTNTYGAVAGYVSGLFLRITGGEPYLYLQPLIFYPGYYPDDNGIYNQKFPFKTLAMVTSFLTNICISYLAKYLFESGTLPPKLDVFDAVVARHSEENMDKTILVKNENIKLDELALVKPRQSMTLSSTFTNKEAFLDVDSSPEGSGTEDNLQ
- Run description: inhibitors of human choline transporter CHT (AID 488975)
- Settings: CHT-expressing cells, membrane potential dye, choline response, at 10 µM
Among all 310,000 compounds or so, about 2,600 (0.84%) were called active.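 Rule for the calls: active = B-score over 3 SD under the library average, and starting fluorescence ratio not unusually high; inactive = the rest.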 The list comes from a sample in which actives are over-represented; it also holds close analogues and randomly drawn compounds.
Field 'call' accepts active, inactive

Example results:
COc1ccc(/C=C2\SC(=S)N(CCC(=O)Nc3ccccn3)C2=O)cc1OC ... inactive
O=C(c1cccs1)C1C(c2ccc(Br)cc2)NC(=S)NC1(O)C(F)(F)F (stereo unspecified) ... active
CC(Sc1nn(-c2ccc(Cl)cc2)c(=S)s1)C(=O)NCC1CCCO1 (stereo unspecified) ... inactive
O=C1/C(=C/c2ccc(F)cc2)SC(=S)N1CCCC(=O)N1CCCCC1CCO (stereo unspecified) ... inactive
Cc1c2cnn(CC(=O)NCCCN3CC(C)CC(C)C3)c(=O)c2c(C)n1Cc1ccc(Cl)cc1 (stereo unspecified) ... inactive
O=C(Nc1ccc2c(c1)CCC2)c1cccc(S(=O)(=O)N2CCN(c3ccc(F)cc3)CC2)c1 ... inactive
O=C(Cn1ncc2c3ccccc3n(Cc3ccccc3)c2c1=O)NCc1ccccn1 ... inactive
CCOC(=O)c1ccc(NC(=O)c2cccnc2)cc1 ... inactive

## Input Would you mind telling me which call this test gave Cc1cc(C)c(S(=O)(=O)NCC(c2ccc3c(c2)OCO3)N2CCOCC2)c(C)c1 (stereo unspecified) ?
## Output inactive

## Input Would you mind telling me which call this test gave COc1ccc(NC(=O)CN(C)C(=O)c2cccc(S(=O)(=O)N3CCN(c4ccccc4)CC3)c2)cc1 ?
## Output inactive

## Input Would you mind telling me which call this test gave O=C(O)c1ccc(/C=C2\SC(=S)N(NC(=O)c3ccc(Br)cc3)C2=O)cc1 ?
## Output active

----------
- Assayed system: High affinity choline transporter 1 (Homo sapiens) (UniProt Q9GZV3)
- Run description: inhibitors of human choline transporter CHT (AID 488975)
- Settings: CHT-expressing cells, membrane potential dye, choline response, at 10 µM
About 2,600 (0.84%) of roughly 310,000 compounds were called active.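 The calls were made as follows: active = B-score over 3 SD under the library average, and starting fluorescence ratio not unusually high; inactive = the rest.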 The sample as a whole holds a higher share of actives than the screen did.
Field 'call' accepts active, inactive

COc1cc(C(=O)NCC(=O)NCCSc2ccc(Br)cc2)cc(OC)c1OC ... inactive
CCCCCCc1ccc(O)cc1O ... active

## Input Would you mind telling me which call this test gave Cc1ccc(Cn2ccc(NC(=O)c3cc(C(C)C)on3)n2)cc1 ?
## Output inactive

## Input Would you mind telling me which call this test gave CCN1CCN(c2ccc(S(=O)(=O)N3CCCCC3)cc2NC(=O)c2cccc(NC(C)=O)c2)CC1 ?
## Output inactive

## Input Would you mind telling me which call this test gave COC(=O)c1cc2occc2n1Cc1nc(-c2ccccc2C)oc1C ?
## Output inactive

## Input Would you mind telling me which call this test gave O=C(NCc1cccs1)C1CCN(S(=O)(=O)c2ccc(Cl)cc2)CC1 ?
## Output inactive

## Input Would you mind telling me which call this test gave N#CC1(NC(=O)COC(=O)CSc2ccc(F)cc2)CCCCC1 ?
## Output inactive

## Input Would you mind telling me which call this test gave O=C(Nc1ccn(Cc2ccccc2)n1)c1n[nH]c([N+](=O)[O-])c1Cl ?
## Output active

## Input Would you mind telling me which call this test gave Cc1cccc(Nc2nc(NCCO)nc(N3CCCC3)n2)c1 ?
## Output inactive

## Input Would you mind telling me which call this test gave CN(C)c1ccc(CNC(=O)CN2C(=O)COc3ccc(S(=O)(=O)N4CCCC4)cc32)cc1 ?
## Output inactive

## Input Would you mind telling me which call this test gave CCOc1ccccc1Nc1ccc(C(=O)O)cc1[N+](=O)[O-] ?
## Output inactive

## Input Would you mind telling me which call this test gave CCN(C(=O)CSc1nnnn1-c1ccccc1OC)C1CCS(=O)(=O)C1 (configuration not stated) ?
## Output inactive

## Input Would you mind telling me which call this test gave CCOC(=O)c1cc2occc2n1CC(=O)N1CCN(C(=O)c2ccco2)CC1 ?
## Output inactive

## Input Would you mind telling me which call this test gave CCCCCCCN=C(C)c1ccccc1O ?
## Output inactive

## Input Would you mind telling me which call this test gave CCc1ccc(NC(=O)CN2C(=O)COc3ccc(S(=O)(=O)N4CCCC4)cc32)cc1 ?
## Output inactive

## Input Would you mind telling me which call this test gave CCOc1ccc(S(=O)(=O)N2CCN(C(=S)NCC3CCCO3)CC2)cc1 (configuration not stated) ?
## Output inactive

## Input Would you mind telling me which call this test gave O=C(Nc1ccc(F)c(Cl)c1)C1CCN(S(=O)(=O)c2cccnc2)CC1 ?
## Output active

## Input Would you mind telling me which call this test gave CC(C)c1ccc(NC(=O)C2CCCN(S(=O)(=O)c3cccnc3)C2)cc1 (configuration not stated) ?
## Output inactive
